# targetOrSystem: Cry1Ab insecticidal protein (Bacillus thuringiensis, UniProt P0A370 1-615)
# assayInfo: direct ELISA: Cry1Ab coated at 1 ug/ml, RGS-His HRP detection
observedProperty: Binding (OD 450 nm)

> print(dat)
                                      binder  readoutnumber
 1  synNAPS2 variant R33A (designed binder) RGSHHHHHHGSMVKVKFKYKGEEKEVDTSKIVWIGRFGKSVYFAYDDNGKTGAGRVYEKDAPKELLDMLARAEREKK            2.2
 2  synNAPS2 variant T40A (designed binder) RGSHHHHHHGSMVKVKFKYKGEEKEVDTSKIVWIGRFGKSVYFRYDDNGKAGAGRVYEKDAPKELLDMLARAEREKK              4
 3  synNAPS2 variant F26A (designed binder) RGSHHHHHHGSMVKVKFKYKGEEKEVDTSKIVWIGRAGKSVYFRYDDNGKTGAGRVYEKDAPKELLDMLARAEREKK            3.7
 4  synNAPS2 variant Y31A (designed binder) RGSHHHHHHGSMVKVKFKYKGEEKEVDTSKIVWIGRFGKSVAFRYDDNGKTGAGRVYEKDAPKELLDMLARAEREKK              0
 5  synNAPS2 variant Y46A (designed binder) RGSHHHHHHGSMVKVKFKYKGEEKEVDTSKIVWIGRFGKSVYFRYDDNGKTGAGRVAEKDAPKELLDMLARAEREKK            3.5
 6  synNAPS2 variant S29A (designed binder) RGSHHHHHHGSMVKVKFKYKGEEKEVDTSKIVWIGRFGKAVYFRYDDNGKTGAGRVYEKDAPKELLDMLARAEREKK              0
 7  synNAPS2 variant R44A (designed binder) RGSHHHHHHGSMVKVKFKYKGEEKEVDTSKIVWIGRFGKSVYFRYDDNGKTGAGAVYEKDAPKELLDMLARAEREKK              0
 8  synNAPS2 variant Y8A (designed binder) RGSHHHHHHGSMVKVKFKAKGEEKEVDTSKIVWIGRFGKSVYFRYDDNGKTGAGRVYEKDAPKELLDMLARAEREKK            2.4
 9  synNAPS2 variant K7A (designed binder) RGSHHHHHHGSMVKVKFAYKGEEKEVDTSKIVWIGRFGKSVYFRYDDNGKTGAGRVYEKDAPKELLDMLARAEREKK              4
10  synNAPS2 variant G24A (designed binder) RGSHHHHHHGSMVKVKFKYKGEEKEVDTSKIVWIARFGKSVYFRYDDNGKTGAGRVYEKDAPKELLDMLARAEREKK              4
11  synNAPS-2 ligand (designed binder) MVKVKFKYKGEEKEVDTSKIVWIGRFGKSVYFRYDDNGKTGAGRVYEKDAPKELLDMLARAEREKK              4
12  synNAPS2 variant K9A (designed binder) RGSHHHHHHGSMVKVKFKYAGEEKEVDTSKIVWIGRFGKSVYFRYDDNGKTGAGRVYEKDAPKELLDMLARAEREKK              4
13  synNAPS2 variant I23A (designed binder) RGSHHHHHHGSMVKVKFKYKGEEKEVDTSKIVWAGRFGKSVYFRYDDNGKTGAGRVYEKDAPKELLDMLARAEREKK            3.2
14  synNAPS2 variant W22A (designed binder) RGSHHHHHHGSMVKVKFKYKGEEKEVDTSKIVAIGRFGKSVYFRYDDNGKTGAGRVYEKDAPKELLDMLARAEREKK              0
15  synNAPS2 variant V21A (designed binder) RGSHHHHHHGSMVKVKFKYKGEEKEVDTSKIAWIGRFGKSVYFRYDDNGKTGAGRVYEKDAPKELLDMLARAEREKK            3.8
